# target of assay: dog ADAMTS-4 (Canis lupus familiaris)
# Sequence (A0A8I3Q3A2 1-992): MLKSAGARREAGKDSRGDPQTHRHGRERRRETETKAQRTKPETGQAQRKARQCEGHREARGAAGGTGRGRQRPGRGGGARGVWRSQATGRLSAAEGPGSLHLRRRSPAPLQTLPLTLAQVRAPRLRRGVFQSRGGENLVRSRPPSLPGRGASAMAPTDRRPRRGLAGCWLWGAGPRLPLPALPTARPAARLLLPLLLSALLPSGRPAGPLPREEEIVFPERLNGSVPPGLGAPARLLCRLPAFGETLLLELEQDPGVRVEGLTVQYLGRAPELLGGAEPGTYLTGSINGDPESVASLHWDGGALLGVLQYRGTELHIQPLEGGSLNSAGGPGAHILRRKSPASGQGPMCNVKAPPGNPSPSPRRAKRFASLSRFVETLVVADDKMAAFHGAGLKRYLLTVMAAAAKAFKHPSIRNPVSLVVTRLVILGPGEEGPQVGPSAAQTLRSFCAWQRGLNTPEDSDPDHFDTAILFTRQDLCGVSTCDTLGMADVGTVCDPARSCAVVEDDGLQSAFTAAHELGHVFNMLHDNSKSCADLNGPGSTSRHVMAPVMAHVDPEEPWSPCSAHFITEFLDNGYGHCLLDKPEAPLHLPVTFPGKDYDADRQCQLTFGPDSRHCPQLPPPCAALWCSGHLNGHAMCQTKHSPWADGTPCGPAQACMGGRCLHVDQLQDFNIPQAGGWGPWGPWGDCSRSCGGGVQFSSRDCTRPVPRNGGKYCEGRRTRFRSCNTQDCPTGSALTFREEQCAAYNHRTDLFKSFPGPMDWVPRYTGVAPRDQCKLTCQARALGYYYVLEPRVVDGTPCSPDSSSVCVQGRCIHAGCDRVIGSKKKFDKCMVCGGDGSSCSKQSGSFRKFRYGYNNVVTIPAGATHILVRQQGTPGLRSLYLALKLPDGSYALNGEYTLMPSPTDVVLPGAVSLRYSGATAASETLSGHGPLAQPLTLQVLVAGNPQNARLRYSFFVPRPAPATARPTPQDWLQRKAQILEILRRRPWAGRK
# assay text: Dog plasma shift AlphaScreen assay
# Type: biochemical
# study conditions: dog ADAMTS-4 in 25% dog plasma
# Procedure: Rat and Dog Plasma Shift AlphaScreen Assay The assay is completed in the same manner using 10 nM ADAMTS-5 instead of 2.1 nM. A similar assay is used with dog ADAMTS-4 in the presence of 25% dog plasma.
measured parameter: IC50
Mention the unit after the number when you answer.

If you can, please state the reported IC50 value of `CC[C@H](Cc1ccc(C(F)(F)F)cc1)C(=O)NC[C@@]1(C2CC2)NC(=O)NC1=O` .
326 nM

* * *

Consider compounds characterized by their IC50 with MMP9 (Homo sapiens (Human)).
Sequence (P14780 94-707, species assumed): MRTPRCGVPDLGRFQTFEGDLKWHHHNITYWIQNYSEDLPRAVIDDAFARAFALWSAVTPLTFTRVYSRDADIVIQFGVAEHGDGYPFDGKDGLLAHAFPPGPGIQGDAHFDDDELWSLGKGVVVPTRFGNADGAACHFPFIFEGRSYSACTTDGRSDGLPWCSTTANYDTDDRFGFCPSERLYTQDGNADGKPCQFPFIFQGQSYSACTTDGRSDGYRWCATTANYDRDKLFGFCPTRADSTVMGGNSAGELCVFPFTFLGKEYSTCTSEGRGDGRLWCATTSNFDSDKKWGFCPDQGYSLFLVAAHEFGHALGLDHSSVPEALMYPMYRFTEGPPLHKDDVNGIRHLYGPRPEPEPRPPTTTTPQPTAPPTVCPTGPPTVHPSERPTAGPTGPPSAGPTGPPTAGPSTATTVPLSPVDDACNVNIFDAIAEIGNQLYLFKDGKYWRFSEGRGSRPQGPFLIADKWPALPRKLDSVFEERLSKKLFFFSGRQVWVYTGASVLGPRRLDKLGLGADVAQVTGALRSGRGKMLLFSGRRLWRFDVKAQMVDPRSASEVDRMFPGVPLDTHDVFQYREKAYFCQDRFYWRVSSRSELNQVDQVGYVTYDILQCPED
Report the value in µM with no unit label.

Would you kindly share the measured IC50 for `CC(C)(Cc1ccc(C(F)(F)F)cc1)C(=O)NC[C@@]1(C2CC2)NC(=O)NC1=O` ?
7.59

For `CC[C@H](Cc1ccc(C(F)(F)F)cc1)C(=O)NC[C@@]1(C2CC2)NC(=O)NC1=O` , what is its reported IC50?
0.439
